Provenance of the data: patent US20070128217A1

Binding of serum 2 to looped/cyclic peptides of protein X5 of SARS-CoV Urbani values by entry
# System: antibodies in sera from SARS patients (sera 1a, 1b, 2, 6, 37, 62, London, SARS-yellow, SARS-green)
# Format: binding, human
reported.property: Binding of serum 2 to looped/cyclic peptides of protein X5 of SARS-CoV Urbani

{"residue.sequence": "YSTAWLCALGKVLPF", "test.result": 0.5}
{"residue.sequence": "CTPNVTINCQDPAGG", "test.result": 0.3}
{"residue.sequence": "GALIARCWYLHEGHQ", "test.result": 0.7}
{"residue.sequence": "GKVLPFHRWHTMVQT", "test.result": 0.6}
{"residue.sequence": "AGGALIARCWYLHEG", "test.result": 0.5}
{"residue.sequence": "TPNVTINCQDPAGGA", "test.result": 0.3}
{"residue.sequence": "QTAAFRDVLVVLNKR", "test.result": 0.6}
{"residue.sequence": "VLPFHRWHTMVQTCT", "test.result": 0.7}

====

Binding of serum 1a to looped/cyclic peptides of protein X2 of SARS-CoV Urbani values by entry
# Tested on: antibodies in sera from SARS patients (sera 1a, 1b, 2, 6, 37, 62, London, SARS-yellow, SARS-green)
# Assay type: binding, human
reported.property: Binding of serum 1a to looped/cyclic peptides of protein X2 of SARS-CoV Urbani

{"residue.sequence": "QFMMSRRRLLACLCK", "test.result": 0.4}
{"residue.sequence": "SPKFTTSLSLHKLLQ", "test.result": 0.5}
{"residue.sequence": "KVSTNLCTHSFRKKQ", "test.result": 0.4}
{"residue.sequence": "WIQFMMSRRRLLACL", "test.result": 0.4}
{"residue.sequence": "HSSSLTSLLKTHRMC", "test.result": 0.4}
{"residue.sequence": "PKFTTSLSLHKLLQT", "test.result": 0.5}
{"residue.sequence": "RRLLACLCKHKKVST", "test.result": 0.2}
{"residue.sequence": "HITVSQIQLSLLKVT", "test.result": 0.5}
{"residue.sequence": "SLLKVTAFQHQNSKK", "test.result": 0.3}
{"residue.sequence": "TAFQHQNSKKTTKLV", "test.result": 0.3}
{"residue.sequence": "IQLSLLKVTAFQHQN", "test.result": 0.5}
{"residue.sequence": "KVTAFQHQNSKKTTK", "test.result": 0.2}
{"residue.sequence": "AISPKFTTSLSLHKL", "test.result": 0.6}
{"residue.sequence": "LLQTLVLKMLHSSSL", "test.result": 0.5}
{"residue.sequence": "ITMTTVYHITVSQIQ", "test.result": 0.4}
{"residue.sequence": "TSLSLHKLLQTLVLK", "test.result": 0.5}
{"residue.sequence": "ITVSQIQLSLLKVTA", "test.result": 0.5}
{"residue.sequence": "SLLKTHRMCKYTQST", "test.result": 0.3}
{"residue.sequence": "STNLCTHSFRKKQVR", "test.result": 0.5}
{"residue.sequence": "LLKTHRMCKYTQSTA", "test.result": 0.4}
{"residue.sequence": "MAISPKFTTSLSLHK", "test.result": 0.5}

====

Binding of serum SARS-green to looped/cyclic peptides of protein M of SARS-CoV Urbani values by entry
# System: antibodies in sera from SARS patients (sera 1a, 1b, 2, 6, 37, 62, London, SARS-yellow, SARS-green)
# Format: binding, human
reported.property: Binding of serum SARS-green to looped/cyclic peptides of protein M of SARS-CoV Urbani

{"residue.sequence": "ATSRTLSYYKLGASQ", "test.result": 0.3}
{"residue.sequence": "LFLAWIMLLQFAYSN", "test.result": 0.3}
{"residue.sequence": "YIIKLVFLWLLWPVT", "test.result": 0.4}
{"residue.sequence": "SFNPETNILLNVPLR", "test.result": 0.3}
{"residue.sequence": "TDSGFAAYNRYRIGN", "test.result": 0.1}
{"residue.sequence": "RLFARTRSMWSFNPE", "test.result": 0.4}
{"residue.sequence": "TSRTLSYYKLGASQR", "test.result": 0.3}
{"residue.sequence": "ARTRSMWSFNPETNI", "test.result": 0.1}
{"residue.sequence": "LEQWNLVIGFLFLAW", "test.result": 0.3}
{"residue.sequence": "PLMESELVIGAVIIR", "test.result": 0.3}
{"residue.sequence": "YRIGNYKLNTDHAGS", "test.result": 0.3}
{"residue.sequence": "FRLFARTRSMWSFNP", "test.result": 0.3}
{"residue.sequence": "NLVIGFLFLAWIMLL", "test.result": 0.3}
{"residue.sequence": "LWLLWPVTLACFVLA", "test.result": 0.2}
{"residue.sequence": "LWPVTLACFVLAAVY", "test.result": 0.2}
{"residue.sequence": "FAAYNRYRIGNYKLN", "test.result": 0.2}
{"residue.sequence": "VGTDSGFAAYNRYRI", "test.result": 0.4}
{"residue.sequence": "MACIVGLMWLSYFVA", "test.result": 0.2}
{"residue.sequence": "LVIGAVIIRGHLRMA", "test.result": 0.3}
{"residue.sequence": "IKLVFLWLLWPVTLA", "test.result": 0.3}
{"residue.sequence": "AYNRYRIGNYKLNTD", "test.result": 0.2}

====

# Tested on: rabbit serum obtained by immunizing a rabbit with the SARS-CoV strain Frankfurt 1
# Format: binding
# Design: unit not given here

{"residue.sequence": "AEILIIIMRTFRIAI", "Rabbit serum looped peptides": 0.0}
{"residue.sequence": "HPLGRCDIKDLPKEI", "Rabbit serum looped peptides": 1.1}
{"residue.sequence": "SYYKLGASQRVGTDS", "Rabbit serum looped peptides": 0.3}
{"residue.sequence": "SIVRQLFKPLTKKNY", "Rabbit serum looped peptides": 0.4}
{"residue.sequence": "ARSVSPKLFIRQEEV", "Rabbit serum looped peptides": 0.2}
{"residue.sequence": "VLPFHRWHTMVQTCT", "Rabbit serum looped peptides": 0.0}
{"residue.sequence": "YLHEGHQTAAFRDVL", "Rabbit serum looped peptides": 0.6}
{"residue.sequence": "SPKLFIRQEEVQQEL", "Rabbit serum looped peptides": 0.0}
{"residue.sequence": "TYSTAWLCALGKVLP", "Rabbit serum looped peptides": 0.7}

====

# System: control sera (pooled serum of ten healthy LUMC hospital workers; commercial negative donor pooled serum from the Dutch bloodbank)
# Type: binding, human
# Design: unit not given here
Binding of Control serum LUMC to linear peptides of the protein M of SARS-CoV Urbani values by entry
reported.property: Binding of Control serum LUMC to linear peptides of the protein M of SARS-CoV Urbani

{"residue.sequence": "SELVIGAVIIRGHLR", "test.result": 0.9}
{"residue.sequence": "NILLNVPLRGTIVTR", "test.result": 0.3}
{"residue.sequence": "YRIGNYKLNTDHAGS", "test.result": 0.3}
{"residue.sequence": "FLWLLWPVTLACFVL", "test.result": 0.2}
{"residue.sequence": "SYYKLGASQRVGTDS", "test.result": 0.4}
{"residue.sequence": "VTRPLMESELVIGAV", "test.result": 0.4}
{"residue.sequence": "PLMESELVIGAVIIR", "test.result": 0.8}
{"residue.sequence": "LEQWNLVIGFLFLAW", "test.result": 0.3}
{"residue.sequence": "WNLVIGFLFLAWIML", "test.result": 0.6}

====

# Test system: antibodies in sera from SARS patients (sera 1a, 1b, 2, 6, 37, 62, London, SARS-yellow, SARS-green)
# Type: binding, human
Binding of serum SARS-yellow to linear peptides of protein X3 of SARS-CoV Urbani values by entry
reported.property: Binding of serum SARS-yellow to linear peptides of protein X3 of SARS-CoV Urbani

{"residue.sequence": "VTIAEILIIIMRTFR", "test.result": 0.3}
{"residue.sequence": "IWNLDVIISSIVRQL", "test.result": 0.2}
{"residue.sequence": "FRIAIWNLDVIISSI", "test.result": 0.7}
{"residue.sequence": "LVDFQVTIAEILIII", "test.result": 0.7}

====

# Test system: recombinant human anti-SARS-CoV antibody 03-018
# Format: binding
# Set-up: unit not given here
reported.property: Binding of antibody 03-018 to looped/cyclic peptides of the N protein of SARS-CoV Urbani

{"residue.sequence": "LNTPKDHIGTRNPNN", "test.result": 0.2}
{"residue.sequence": "RPKQRRPQGLPNNTA", "test.result": 0.2}
{"residue.sequence": "DNGPQSNQRSAPRIT", "test.result": 0.3}
{"residue.sequence": "PQFKDNVILLNKHID", "test.result": 0.2}
{"residue.sequence": "LDDKDPQFKDNVILL", "test.result": 0.3}
{"residue.sequence": "QGQTVTKKSAAEASK", "test.result": 0.2}
{"residue.sequence": "DMDDFSRQLQNSMSG", "test.result": 0.2}
{"residue.sequence": "QGLPNNTASWFTALT", "test.result": 0.3}
{"residue.sequence": "YYRRATRRVRGGDGK", "test.result": 0.2}
